# Tested Target: T1, cynomolgus Tim3 (ELISA) (cynomolgus, UniProt A0A2K5U3G7 22-193)
# T1 construct: also called Biochem Cyno; cyno TIM3
# T1 sequence: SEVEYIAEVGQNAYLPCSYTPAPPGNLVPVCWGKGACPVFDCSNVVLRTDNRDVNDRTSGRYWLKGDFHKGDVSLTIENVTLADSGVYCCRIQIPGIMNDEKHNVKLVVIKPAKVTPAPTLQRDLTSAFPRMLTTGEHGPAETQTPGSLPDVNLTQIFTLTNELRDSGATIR
# Assay Explanation: ELISA, cyno Tim3; EC50 relative to the sample's max value
Quantity Name: EC50

What value of measured EC50 is listed for aTim3 0018MutNS (antibody, V domains shown, also called aT3m3 0018MutNS) VH: QVTLKESGPGILQPSQTLSLTCSFSGFSLSTSGMSVGWIRQPSGKGLEWLAHIWLNDDVFFNPALKRRLTISKDTSNNQVFLQIASVVTADTATYYCVRANGYLYALDYWGQGISVTVSS VL: QIVLTQSPAIMSASPGQKVTITCSASSSVSYTQWYQQKLGSSPKLWIYDAFKLAPGVPARFSGSGTGTSYSLTISSMEAEDAASYFCHQWSSYPWTFGGGTKLEIK ? 0.0119 µg/mL

What about aTim3 0016 MutNQ (antibody, V domains shown) VH: QVTLKESGPGILQPSQTLRLTCSFSGFSLSTSGMSVGWIRQPSGKGLEWLAHIWLNDDVFFNPALKSRLTISKDTSNNQVFLQIASVVTADTATYYCVRANGYLYALDYWGQGTSVTVSS VL: QIVLTQSPAIMSASPGQKVTITCSASSSVQYTQWYQQKLGSSPKLWIYDAFKLAPGVPARFSGSGTGTSYSLTISSMEAEDAASYFCHQWSSYPWTFGGGTKLEIK ? 0.0083 µg/mL

What about Tim3_0016 variant (Tim3_0018) (antibody, V domains shown, also called TIM3-0016 variant (0018); aTim3 0018) VH: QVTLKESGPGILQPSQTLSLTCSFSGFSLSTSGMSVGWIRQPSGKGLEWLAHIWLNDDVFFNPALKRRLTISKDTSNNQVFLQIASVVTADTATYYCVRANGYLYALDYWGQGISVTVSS VL: QIVLTQSPAIMSASPGQKVTITCSASSSVNYTQWYQQKLGSSPKLWIYDAFKLAPGVPARFSGSGTGTSYSLTISSMEAEDAASYFCHQWSSYPWTFGGGTKLEIK ? 0.0146 µg/mL

What about aTim3 0018MutNQ (antibody, V domains shown, also called aT3m3 0018MutNQ) VH: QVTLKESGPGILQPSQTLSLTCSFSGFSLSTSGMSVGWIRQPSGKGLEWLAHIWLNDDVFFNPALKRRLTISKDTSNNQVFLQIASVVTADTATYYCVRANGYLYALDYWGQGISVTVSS VL: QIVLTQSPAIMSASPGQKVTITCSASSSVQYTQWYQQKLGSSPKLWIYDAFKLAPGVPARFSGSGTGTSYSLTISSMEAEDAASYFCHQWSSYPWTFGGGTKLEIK ? 0.0132 µg/mL

What about aTim3 0016MutNS (antibody, V domains shown) VH: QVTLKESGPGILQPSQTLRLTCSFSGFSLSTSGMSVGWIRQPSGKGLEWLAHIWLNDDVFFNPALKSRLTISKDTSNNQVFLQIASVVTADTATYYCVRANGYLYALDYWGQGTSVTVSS VL: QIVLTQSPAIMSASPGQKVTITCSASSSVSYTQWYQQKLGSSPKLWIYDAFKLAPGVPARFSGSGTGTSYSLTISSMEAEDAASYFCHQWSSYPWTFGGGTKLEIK ? 0.0097 µg/mL
